- METHOD SUMMARY: Half life in human pooled plasma at 50 uM up to 24 hrs by LCMS analysis
- Assay type: ADME, cell-free
MEASURE: half-life at 50 µM (h)
Give bare numbers, in h.

Any idea what its half-life at 50 µM is? The compound is COc1cc(/C=C/C(=O)Oc2cc(O)c3c(c2)O[C@H](c2ccc4c(c2)OC(c2ccc(O)c(OC)c2)C(CO)O4)[C@@H](O)C3=O)ccc1O (stereo partly specified)
1.5

* * *

- METHOD SUMMARY: Stability of the compound in assay medium at 50 uM after 24 hrs by LCMS analysis
- Assay type: physicochemical
- TEST SETTINGS: read-out: Stability
MEASURE: remaining at 24 h, 50 µM
Don't forget the unit after the number, please.

Need remaining at 24 h, 50 µM, item COc1cc(/C=C/C(=O)Oc2cc(O)c3c(c2)O[C@H](c2ccc4c(c2)OC(c2ccc(O)c(OC)c2)C(CO)O4)[C@@H](O)C3=O)ccc1O (stereo partly specified)
25%

* * *

Would you mind telling me the reported pIC50 of each entry?
- MEASUREMENT TARGET: Microtubule-associated protein tau (Homo sapiens)
- Sequence (P10636 whole entry): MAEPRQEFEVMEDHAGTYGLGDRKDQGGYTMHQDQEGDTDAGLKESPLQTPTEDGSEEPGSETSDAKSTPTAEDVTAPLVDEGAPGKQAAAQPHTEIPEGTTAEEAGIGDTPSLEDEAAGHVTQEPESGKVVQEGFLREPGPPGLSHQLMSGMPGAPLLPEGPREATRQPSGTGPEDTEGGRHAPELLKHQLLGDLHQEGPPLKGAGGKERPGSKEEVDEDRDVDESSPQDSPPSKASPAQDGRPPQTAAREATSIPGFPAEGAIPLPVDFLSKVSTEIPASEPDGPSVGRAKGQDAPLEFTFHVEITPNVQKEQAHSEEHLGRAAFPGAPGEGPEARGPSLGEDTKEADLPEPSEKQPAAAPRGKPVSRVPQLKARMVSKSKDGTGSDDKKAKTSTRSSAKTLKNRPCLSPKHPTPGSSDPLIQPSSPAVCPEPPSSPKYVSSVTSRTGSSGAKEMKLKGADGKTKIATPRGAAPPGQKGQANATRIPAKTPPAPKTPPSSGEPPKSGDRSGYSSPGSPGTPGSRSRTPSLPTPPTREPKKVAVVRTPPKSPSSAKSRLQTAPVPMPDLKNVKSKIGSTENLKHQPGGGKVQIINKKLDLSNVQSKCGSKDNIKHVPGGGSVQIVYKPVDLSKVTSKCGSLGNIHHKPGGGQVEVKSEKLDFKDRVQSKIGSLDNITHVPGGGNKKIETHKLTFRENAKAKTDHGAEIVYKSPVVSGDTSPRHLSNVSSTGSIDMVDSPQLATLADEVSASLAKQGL
- METHOD SUMMARY: Inhibition of tau (unknown origin) aggregation expressed in Escherichia coli (DE3) incubated for overnight by Th-S fluorescence staining based UV-Vis spectrophotometer
Answers are plain numbers, as −log10 of the molar value.

Hi! Can you tell me pIC50 for each of these compounds?
1. COc1cc(/C=C/C(=O)Oc2cc(O)c3c(c2)O[C@H](c2ccc4c(c2)O[C@H](c2ccc(O)c(OC)c2)[C@@H](CO)O4)[C@@H](O)C3=O)ccc1O
2. COc1cc(/C=C/C(=O)Oc2cc(O)c3c(c2)O[C@H](c2ccc4c(c2)O[C@@H](c2ccc(O)c(OC)c2)[C@H](CO)O4)[C@@H](O)C3=O)ccc1O

1. 4.57
2. 4.89

* * *

- MEASUREMENT TARGET: Microtubule-associated protein tau (Homo sapiens)
- METHOD SUMMARY: Inhibition of tau (unknown origin) aggregation expressed in Escherichia coli (DE3) at 10 uM incubated for overnight by Th-S fluorescence staining based UV-Vis spectrophotometer (reference value: 0.0 +/- 1.4%)
MEASURE: inhibition (%)
Give bare numbers, in %.

Below are worked cases with known answers.
MOLECULE	OBS VALUE
COc1cc(/C=C/C(=O)Oc2cc(O)c3c(c2)O[C@H](c2ccc4c(c2)O[C@@H](c2ccc(O)c(OC)c2)[C@H](CO)O4)[C@@H](O)C3=O)ccc1O	44.5
COc1cc(/C=C/C(=O)Oc2cc(O)c3c(c2)O[C@H](c2ccc4c(c2)O[C@H](c2ccc(O)c(OC)c2)[C@@H](CO)O4)[C@@H](O)C3=O)ccc1O	36.8
COc1cc(C2Oc3cc([C@H]4Oc5cc(OC(=O)/C=C/c6ccccc6)cc(O)c5C(=O)[C@@H]4O)ccc3OC2CO)ccc1O (stereo not given in full)	37.1
COc1cc(/C=C/C(=O)Oc2cc(O)c3c(c2)O[C@H](c2ccc4c(c2)OC(c2ccc(O)c(OC)c2)C(CO)O4)[C@@H](O)C3=O)ccc1O (stereo not given in full)	30.4

# query: inhibition of entry COc1cc(C2Oc3cc([C@H]4Oc5cc(O)cc(O)c5C(=O)[C@@H]4O)ccc3OC2CO)ccc1O (stereo not given in full)
2
